# testMethodNotes: Solubilizing dezocine in formulations
# recordedConditions: 31% propylene glycol, 6% PVOH solution, pH 4, aqueous with cosolvent or surfactant or cyclodextrin
Counter-ions that a name gives are not always drawn.
testReadout: solubility (µg/mL)
Give bare numbers, in µg/mL.

Reported solubility, compound C[C@@]12CCCCC[C@@H](Cc3ccc(O)cc31)[C@@H]2N [Dezocine, hydrobromide] : ____ 10000

* * *

# tgt: delta opioid receptor (Homo sapiens, UniProt P41143)
# Sequence (P41143 whole entry): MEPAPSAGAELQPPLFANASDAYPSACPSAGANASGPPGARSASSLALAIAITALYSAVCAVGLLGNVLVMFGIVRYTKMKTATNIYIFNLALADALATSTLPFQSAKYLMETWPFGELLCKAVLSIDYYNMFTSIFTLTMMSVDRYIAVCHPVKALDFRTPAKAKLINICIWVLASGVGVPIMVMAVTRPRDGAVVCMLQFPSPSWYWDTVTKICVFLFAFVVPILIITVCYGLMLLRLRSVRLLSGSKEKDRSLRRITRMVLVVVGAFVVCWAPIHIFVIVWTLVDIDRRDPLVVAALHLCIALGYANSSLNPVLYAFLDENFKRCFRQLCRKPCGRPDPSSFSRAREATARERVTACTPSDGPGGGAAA
# testMethodNotes: Secondary radioligand binding assay (affinity)
# recordedConditions: mean±SE; read-out: Ki DOR
# Method: The secondary binding assay was performed only when the inhibition in the primary screen was over 50%. A secondary binding assay was utilized to determine the binding affinity for the identified receptor. 50 μL of a crude membrane fraction of cells expressing the respective receptors were applied to each well. Reaction incubation, harvesting and radioactivity measurement from the primary assay were repeated. Affinity is expressed as pKi (−log Ki).
Structures can show the parent of a compound that is named as a salt.
testReadout: pKi
Answers are plain numbers, as −log10 of the molar value.

Reported pKi, molecule C[C@@]12CCCCC[C@@H](Cc3ccc(O)cc31)[C@@H]2N [Dezocine, hydrobromide] : ____ 6.28
